All values here come from PubChem BioAssay (NCI).

Test: NCI Yeast Anticancer Drug Screen. Data for the mlh1 rad18 strain (AID 175)
Conditions: S. cerevisiae mlh1 rad18 strain growth inhibition; at 50.0 µM; hits give high values
The panel holds about 79,000 compounds, 15% with a hit somewhere; the sample as a whole holds those more often.
EXPERIMENTAL_READOUT: growth inhibition (%)
Please respond with the number in % and leave the unit unwritten.

Problem: Identify measured growth inhibition corresponding to `CC(C)N1C(=O)c2ccccc2C1=O`
Solution: 14.3

Problem: Identify measured growth inhibition corresponding to CC1C(=O)C2C1CS2(=O)=O (configuration not stated)
Solution: -5.45

Problem: Identify measured growth inhibition corresponding to `Cc1cc(C)c(CC#N)s1`
Solution: -22.3

Problem: Identify measured growth inhibition corresponding to CC(CCl)NC(=O)Nc1cccc2c1CCCC2 (configuration not stated)
Solution: 18.8

Problem: Identify measured growth inhibition corresponding to CC(=O)C(C)(O)C(OP(=O)(O)O)c1ccccc1 (configuration not stated)
Solution: 3.55

Problem: Identify measured growth inhibition corresponding to `COc1cc(N=Nc2c[nH]c3ccccc23)c(OC)cc1N=Nc1ccc([N+](=O)[O-])cc1`
Solution: 34.8

Problem: Identify measured growth inhibition corresponding to `CC(=O)OCC(C)(C)COC(C)=O`
Solution: -11.2

---

Test: NCI Yeast Anticancer Drug Screen. Data for the mec2-1 strain (AID 157)
Details: S. cerevisiae mec2-1 strain, at 50.0 µM, hits give high values
Compounds without any hit were thinned out: in the full panel of roughly 79,000, 15% have a hit.
Field: growth inhibition. Provide a value for each of the compounds that follow.
Please respond with the number in % and leave the unit unwritten.

Problem: Identify measured growth inhibition corresponding to N#Cc1cccc(N2C(=O)C3C4C=CC(C3C2=O)C2C(=O)N(c3cccc(C#N)c3)C(=O)C42)c1 (stereo not drawn)
Solution: -0.65

Problem: Identify measured growth inhibition corresponding to `Nc1nc(-c2ccccc2)nc2[nH]ncc12`
Solution: -3.5

Problem: Identify measured growth inhibition corresponding to `CC(=O)/C=C(/C=N/O)c1ccccc1`
Solution: -27.1

---

Experiment: NCI Yeast Anticancer Drug Screen. Data for the cln2 rad14 strain (AID 165);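 note: 0% = growth equal to vehicle treated cultures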
Settings: S. cerevisiae cln2 rad14 strain, at 50.0 µM, hits give high values
Compounds without any hit were thinned out: in the full panel of roughly 79,000, 15% have a hit.
EXPERIMENTAL_READOUT: growth inhibition (%)
Please respond with the number in % and leave the unit unwritten.

Problem: Identify measured growth inhibition corresponding to `Cc1ncc([N+](=O)[O-])n1CCNS(=O)(=O)CCCn1ccnc1[N+](=O)[O-]`
Solution: -25.7

Problem: Identify measured growth inhibition corresponding to `Cc1nc(N)nc(C)c1N=Nc1cccc(Cl)c1`
Solution: -32.8

Problem: Identify measured growth inhibition corresponding to `Cc1ccc(I)cc1`
Solution: -7.5

Problem: Identify measured growth inhibition corresponding to `CCOc1ccc(CCC(=O)O)cc1`
Solution: 2.8

---

Test: NCI Yeast Anticancer Drug Screen. Data for the cln2 rad14 strain (AID 165);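 note: 0% = growth equal to vehicle treated cultures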
Conditions: S. cerevisiae cln2 rad14 strain, at 50.0 µM, hits give high values
This is part of a sample that, as a whole, favours compounds with a hit. Of some 79,000 tested, about 15% had one in any assay.
EXPERIMENTAL_READOUT: growth inhibition (%)
Please respond with the number in % and leave the unit unwritten.

Problem: Identify measured growth inhibition corresponding to `CN(C)CCCSc1n[nH]c(=O)[nH]c1=O`
Solution: -19.7

Problem: Identify measured growth inhibition corresponding to `Cc1ccccc1NC(=O)CSC#N`
Solution: 20.1

Problem: Identify measured growth inhibition corresponding to `Cc1ccc(N=Nc2ccc(C)cc2NC(=O)c2ccc(Cl)cc2)cc1`
Solution: -7.8

Problem: Identify measured growth inhibition corresponding to `CC(C)(C)CC(C)(C)Nc1ccc(C(N)=O)cc1`
Solution: -8.2

Problem: Identify measured growth inhibition corresponding to CCN1CC(O)Cc2ccccc21 (stereo not drawn)
Solution: 1.4

Problem: Identify measured growth inhibition corresponding to `CO[C@H]1C[C@H]2CC[C@@]1(C)C2(C)C`
Solution: -18.9

Problem: Identify measured growth inhibition corresponding to `NCCNCCCCCCNC(=O)c1cccc2cc3ccccc3nc12`
Solution: -7.55

Problem: Identify measured growth inhibition corresponding to CN(C)C1=CC(=S)NC2CCCCC12 (stereo not drawn)
Solution: 2.05

Problem: Identify measured growth inhibition corresponding to BrC1CCC(Br)C(Br)CCC1Br (stereo not drawn)
Solution: 31.8

Problem: Identify measured growth inhibition corresponding to COc1ccccc1C(N)c1ccccc1 (stereo not drawn)
Solution: 5.8

Problem: Identify measured growth inhibition corresponding to OC1COc2c3ccccc3nn2C1 (stereo not drawn)
Solution: 14.5

Problem: Identify measured growth inhibition corresponding to `[Cl][Pt+2][Cl].[NH-]c1ccccc1F.[NH-]c1ccccc1F`
Solution: 15.8

Problem: Identify measured growth inhibition corresponding to CCCC1SC(=S)N(c2ccc(Cl)cc2)C1=O (stereo not drawn)
Solution: 9.2

---

Field: growth inhibition. Provide a value for each of the compounds that follow.
Assay: NCI Yeast Anticancer Drug Screen. Data for the mlh1 rad18 strain (AID 175)
Settings: S. cerevisiae mlh1 rad18 strain growth inhibition; at 50.0 µM; hits give high values
Procedure: Growth inhibition of yeast strains with defined genetic alterations is measured as a screen for potential anti-cancer activity. Selected strains with alterations in DNA damage repair or cell cycle control were exposed to compounds and growth inhibition was measured relative to vehicle treated controls. The strain used in this assay is mlh1 rad18
This is part of a sample that, as a whole, favours compounds with a hit. Of some 79,000 tested, about 15% had one in any assay.
Please respond with the number in % and leave the unit unwritten.

Problem: Identify measured growth inhibition corresponding to O=C(Oc1ccn(C2OC(CO)C(O)C2O)c(=O)c1)C12CC3CC(CC(C3)C1)C2 (centres undefined)
Solution: 36.2

Problem: Identify measured growth inhibition corresponding to COC1CC(NC(C)=O)C(OC(=O)c2ccccc2)C(CBr)O1 (centres undefined)
Solution: 19.6

Problem: Identify measured growth inhibition corresponding to `[N-]=[N+]=Nc1ccccc1C(=O)N1C(=O)c2ccccc2C(=O)N(C(=O)c2ccccc2N=[N+]=[N-])c2ccccc21`
Solution: -6.4

Problem: Identify measured growth inhibition corresponding to COC(C(N)=O)c1ccccc1 (centres undefined)
Solution: -3.45

---

Field: growth inhibition. Provide a value for each of the compounds that follow.
Assay: NCI Yeast Anticancer Drug Screen. Data for the rad50 strain (AID 155);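 note: 0% = growth of vehicle-only cultures of the same strain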
Conditions: S. cerevisiae rad50 strain growth inhibition; at 50.0 µM; hits give high values
The panel holds about 79,000 compounds, 15% with a hit somewhere; the sample as a whole holds those more often.
Please respond with the number in % and leave the unit unwritten.

Problem: Identify measured growth inhibition corresponding to `c1ccc(P(CCNCCP(c2ccccc2)c2ccccc2)c2ccccc2)cc1`
Solution: -16

Problem: Identify measured growth inhibition corresponding to `CC(F)(F)C(F)(F)C(=O)CC(=O)C(F)(F)F.CC(F)(F)C(F)(F)C(=O)CC(=O)C(F)(F)F.[Cu]`
Solution: -9.15

Problem: Identify measured growth inhibition corresponding to CCOc1ccc(N2CC(=O)N3CCCC(c4ccccc4)N3C(=O)C2)cc1 (configuration not stated)
Solution: -23.7

Problem: Identify measured growth inhibition corresponding to `CCCCS/C=C\C(=O)OCC`
Solution: 18.9

Problem: Identify measured growth inhibition corresponding to `CNC(=O)CCC(=O)O`
Solution: -7.25

Problem: Identify measured growth inhibition corresponding to `O=C1CSSCC(=O)Nc2ccccc2N1`
Solution: 6.35

Problem: Identify measured growth inhibition corresponding to N=c1nc2n(cc1F)C1OC(CO)C(O)C1O2 (configuration not stated)
Solution: -18.1

---

Assay: NCI Yeast Anticancer Drug Screen. Data for the mlh1 rad18 strain (AID 175)
Settings: S. cerevisiae mlh1 rad18 strain growth inhibition; at 50.0 µM; hits give high values
This is part of a sample that, as a whole, favours compounds with a hit. Of some 79,000 tested, about 15% had one in any assay.
EXPERIMENTAL_READOUT: growth inhibition (%)
Please respond with the number in % and leave the unit unwritten.

Problem: Identify measured growth inhibition corresponding to `Cc1ccc2ncccc2c1`
Solution: -6.45

Problem: Identify measured growth inhibition corresponding to `C/C(CC(=O)Nc1ccc(NC(=O)/C(C)=N/NS(=O)(=O)c2ccc(C)cc2)cc1)=N\NS(=O)(=O)c1ccc(C)cc1`
Solution: 27.1

Problem: Identify measured growth inhibition corresponding to C=C1C(=O)OC2/C=C(\C)C(O)C/C=C(/C)C(OC(=O)/C(C)=C\C)C(O)C12 (configuration not stated)
Solution: 11.8

Problem: Identify measured growth inhibition corresponding to `CCOC(=O)/C(C#N)=C(\C)c1ccc(O)c(OC)c1`
Solution: 14.8

Problem: Identify measured growth inhibition corresponding to `C=COS(=O)O`
Solution: -0.15

Problem: Identify measured growth inhibition corresponding to `COC(=O)C1CC[N-]CC1.COC(=O)C1CC[N-]CC1.[Cl][Pt+2][Cl]`
Solution: 21.2

Problem: Identify measured growth inhibition corresponding to `CCOC1(c2ccccc2)CCNCC1`
Solution: 12.9

Problem: Identify measured growth inhibition corresponding to CCOC(=O)C1C(=O)CC(C)(O)C(C(=O)OCC)C1c1ccc(N(C)C)cc1 (configuration not stated)
Solution: -10.2

Problem: Identify measured growth inhibition corresponding to O=C(c1ccc(Cl)s1)C(Cl)C(Cl)c1ccc(Cl)s1 (configuration not stated)
Solution: -3.55

Problem: Identify measured growth inhibition corresponding to `O=c1[nH]c2c(Cl)cc(Cl)c(Cl)c2c2ccccc12`
Solution: 4.85

Problem: Identify measured growth inhibition corresponding to `O=C1c2ccccc2C(=O)N1CCOCCOCCN1C(=O)c2ccccc2C1=O`
Solution: 20.4

Problem: Identify measured growth inhibition corresponding to COC1C(=O)c2ccccc2N1C(C)=O (configuration not stated)
Solution: 1.15

Problem: Identify measured growth inhibition corresponding to `CC1=CC(=O)OC(=O)/C1=C/c1ccc(N(C)C)cc1`
Solution: -9.4

Problem: Identify measured growth inhibition corresponding to `CCCCNc1nc(C#N)c(N)s1`
Solution: 8.55

Problem: Identify measured growth inhibition corresponding to `CC(C)(C)C(=O)CC(=O)C(C)(C)C`
Solution: -15.8

Problem: Identify measured growth inhibition corresponding to `O=C1CCCCc2ccccc21`
Solution: -8.25

Problem: Identify measured growth inhibition corresponding to O=C1O[C@@H]2C3COC(O)[C@](O)(O3)[C@@H]2/C1=C\c1ccc(O)cc1 (some centres not stated)
Solution: 9.4
